tested on: α-HCoV 229E, β-HCoV OC43, MERS-CoV, SARS-CoV, SARS-CoV-2 variants (Delta, BA.2); format: cell-based; details: read-out: EC50 against all tested variants
property_name: EC50

Query :: Hello, I am looking for reported EC50 with α-HCoV 229E, β-HCoV OC43, MERS-CoV, SARS-CoV, SARS-CoV-2 variants (Delta, BA.2) for `C#CCn1c(C)c(-n2nnc3ccccc32)c(=O)n(-c2cncc3ccccc23)c1=O` . Could you help?
Result :: < 3000 nM
